Target: recombinant human MASP2 (amino acids 297-686, C-terminal His Tag) (human, UniProt O00187 297-686)
Sequence (O00187 other isoform, or with tags, fused parts or gaps limits assumed): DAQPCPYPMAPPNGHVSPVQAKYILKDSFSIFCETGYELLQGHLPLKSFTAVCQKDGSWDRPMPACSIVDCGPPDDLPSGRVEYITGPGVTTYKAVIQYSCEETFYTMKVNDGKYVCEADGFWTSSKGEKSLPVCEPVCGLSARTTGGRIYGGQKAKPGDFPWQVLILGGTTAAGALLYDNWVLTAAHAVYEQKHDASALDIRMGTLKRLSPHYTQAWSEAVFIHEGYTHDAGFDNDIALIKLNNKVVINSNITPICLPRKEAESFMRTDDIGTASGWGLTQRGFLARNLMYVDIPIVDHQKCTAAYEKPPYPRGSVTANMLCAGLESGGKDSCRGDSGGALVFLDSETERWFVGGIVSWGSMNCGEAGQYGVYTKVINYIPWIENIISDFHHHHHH
Assay: cell-based or functional assay
Bridges are numbered along the chain shown (N, C = ends). Where no end group is shown, it is not given here. [ ]: non-standard residue; d: D form. Oic = O=C(O)[C@@H]1C[C@@H]2CCCC[C@@H]2N1; Trx = NC[C@H]1CC[C@H](C(=O)O)CC1; tBuAla = CC(C)(C)C[C@H](N)C(=O)O; Pen = CC(C)(S)[C@H](N)C(=O)O; 4Amb = NCc1ccc(C(=O)O)cc1; Orn = NCCC[C@H](N)C(=O)O; Dap = NC[C@H](N)C(=O)O; Ahx = NCCCCCC(=O)O
QUANTITY NAME: human MASP2 IC50 (nM)

Example entries and their recorded answers appear below.
- [Dap][Dap]ICSRSLP[Oic]I[Pen]IP (lactam 1-C; disulfide 4-12; also: TFA salt) [Example 86: (Dap)++-(Dap)-IC+SRSLP-(Oic)-I-(Pen)+-IP**]: 1000
- cyclo([dA]GGICSRSLPPICIPD) (disulfide 5-13; also: TFA salt) [Example 19: a**GGIC+SRSLPPIC+IPD**]: 210

A = cyclo([Ahx][4Amb]ICSRS[tBuAla]PPI[Pen]IP) (disulfide 4-12; also: TFA salt) [Example 68: (Ahx)**-(4-(Aminomethyl)benzoic acid)-IC+SRS-((tBu)A)-PPI-(Pen)+-IP**]
B = cyclo([Dap][Dap]GICSRSLPPICIPD) (disulfide 5-13; also: TFA salt) [Example 23: (Dap)**-(Dap)-GIC+SRSLPPIC+IPD**]
C = cyclo([Dap][Dap]ICSRS[tBuAla]PPI[Pen]IP) (disulfide 4-12; also: TFA salt) [Example 97: (Dap)**-(Dap)-IC+SRS-((tBu)A)-PPI-(Pen)+-IP**]
D = cyclo([Orn]GICSRS[tBuAla]PPI[Pen]IP) (disulfide 4-12; also: TFA salt) [Example 96: (Orn)**-GIC+SRS-((tBu)A)-PPI-(Pen)+-IP**]
IN: Reorder the items by human MASP2 IC50, least to greatest. Returns: the labels listed in the requested order.
OUT: A, B, D, C
(A: 2.57 nM, B: 20 nM, D: 400 nM, C: 760 nM)

P = cyclo(ICSRS[tBuAla]PPI[Pen]IPP) (disulfide 2-10; also: TFA salt) [Example 58: I**C+SRS-((tBu)A)-PPI-(Pen)+-IPP**]
Q = cyclo([Ahx][Trx]ICSRS[tBuAla]PPI[Pen]IP) (disulfide 4-12; also: TFA salt) [Example 59: (Ahx)**-(TXA)-IC+SRS-((tBu)A)-PPI-(Pen)+-IP**]
IN: Choose between P and Q : whose measured human MASP2 IC50 value is numerically larger? Give the chosen item's label as your response.
OUT: P
